Measured Kd, listed per entry for reference.
Target: T1, TN
T1 single chain: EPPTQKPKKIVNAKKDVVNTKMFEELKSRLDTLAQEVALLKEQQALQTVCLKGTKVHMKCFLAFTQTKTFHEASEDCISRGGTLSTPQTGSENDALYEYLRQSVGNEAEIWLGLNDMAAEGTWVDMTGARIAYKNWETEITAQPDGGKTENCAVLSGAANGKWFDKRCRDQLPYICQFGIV
A number alone suffices; assume nM.

[
  {
    "BINDER": "Clone 25B2 (mAb6) (antibody, V domains shown) VH: DVNLVESGGGLVKLGGSLKLSCADSGFTFSSYYMSWVRQTPEKRLELVAAINSNGGRTYYPDTVKGRFTISRDNAKNTLYLQMSSLKSEDTALYYCARQGKNGLDYWGQGTSVTVSS VL: DIQMTQTTSSLSASLGDRVTISCRASQDISNHLNWYQQKPDGTIKLLIYYTSRLHSGVPSRFSGSGSGTDFSLSISNLEQEDIATYFCQQGKTLPPTFGGGTKLEIK",
    "RECORDED_ENDPOINT": "Kd",
    "TEST_RESULT": 0.915
  },
  {
    "BINDER": "Clone 27B12 (mAb8) (antibody, V domains shown) VH: DVKLVESGGGLVKLGGSLKLSCAASGFTFSTDYMSWVRQSPEKRLELVAAINSNGGTTYYPDTVKGRFIISRDNAKNTLYLQMSSLRSEDTALYYCARQVKNGLDYWGQGTSVTVSS VL: DIQMTQTTSSLSASLGDRVTISCRASQDISNYLNWYQQKPDGTVKLLIYKTSRLHSGVPSRFRGSGSGTDYSLTISNLEEEDVATYFCQQGNTLPPTFGGGTKLEIK",
    "RECORDED_ENDPOINT": "Kd",
    "TEST_RESULT": 2.02
  },
  {
    "BINDER": "Clone 18B1 (mAb2) (antibody, V domains shown) VH: DVKLVESGGGLVNLGGSLKLSCAASGFTFSSDYMSWVRQIPEKRLELVAAINSNGGTTYYPDTVKGRFTISRDNAKNTLYLQMSSLKSEDTALYYCARQGKNGMDYWGQGTSVTVSS VL: DIQMTQTTSSLSASLGDRVTISCRASQDISNHLNWYQQRPDGTVKLLIYYTSRLHSGVPSRFSGSGSGTDYSFTITNLDQEDIATYFCQQGKTLPPTFGGGTKLEIK",
    "RECORDED_ENDPOINT": "Kd",
    "TEST_RESULT": 0.114
  }
]

Recorded result, 23F6 (mAb5) (antibody, V domains shown) VH: DVKLVESGGGLVKLGGSLKLSCAASGFTFSSSYMSWVRQTPEKRLELVAAINNNGGTTYYPDTVKGRFTISRDNAKNTLYLQMSSLKSEDTALYYCTRQGKNGLDYWGQGTSVTVSS VL: DIQMTQTTSSLSASLGDRVTISCRASQDIGNLLNWYQQKPDGTVKLLISYTSRLHSGVPSRFSGSGSGTDYSLTITNLEQEDIATYFCQQANTLPPTFGGGSKLEIK , Kd: 8.03

Ref: patent US20230287090A1
